Recorded growth for the following compounds
System: EKVX NSCLC
ASSAY_REMARKS: NCI-60 one-dose screen, 48 h (100 = growth as untreated, 0 = no growth, -100 = all killed)
PARTICULARS: 10 µM
About 83,000 compounds went through this panel and 20% of them were active in at least one assay; those are over-represented in the sample as a whole.
Express the result in % but write the number alone.

Illustrative cases are given below, each with its answer.
• Cc1ccccc1-n1c(C)nc2cc(NC(=O)c3ccc(Cl)cc3)ccc2c1=O = 51.5
• Nc1cc2c(cc1Br)[nH]c(=O)c1ccccc12 = 49.5

Now let's try a different one.
Consider the compound Cc1sc(NC(=O)c2ccc(C(C)(C)C)cc2)c(C(=O)O)c1C tested on EKVX NSCLC; state its growth.
51.1
